# experimental system: CRTH2 receptor (hCRTH2) (Homo sapiens, UniProt Q9Y5Y4)
# Construct: expressed in transfected cells; host or cells: HEK cells (HEK-hCRTH2 cell line), membranes
# Sequence (Q9Y5Y4 whole entry): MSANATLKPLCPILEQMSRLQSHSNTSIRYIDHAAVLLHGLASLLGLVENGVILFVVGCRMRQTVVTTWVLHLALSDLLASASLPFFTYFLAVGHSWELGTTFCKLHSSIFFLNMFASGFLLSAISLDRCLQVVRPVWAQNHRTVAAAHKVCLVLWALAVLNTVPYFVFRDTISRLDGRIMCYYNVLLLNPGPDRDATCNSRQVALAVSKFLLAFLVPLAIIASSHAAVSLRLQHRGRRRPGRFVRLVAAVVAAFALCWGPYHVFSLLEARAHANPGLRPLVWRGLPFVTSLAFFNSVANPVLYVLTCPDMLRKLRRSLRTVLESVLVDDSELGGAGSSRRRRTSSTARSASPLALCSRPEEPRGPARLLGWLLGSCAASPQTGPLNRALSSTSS
# assay name: Radioligand binding assay ([3H]PGD2 competition, membranes of HEK-hCRTH2 cell line)
# measurement parameters: 3.0 nM [3H]PGD2, HEK-hCRTH2 membranes, 60 min, room temperature; read-out: Ki
Listing: Ki of selected compounds
parameter measured: Ki

compound	parameter measured	meas value
Cc1cccc2nc(C3(C)CC(c4ccc5c(=O)n(-c6ccc(F)cc6)c(CCCCC(=O)O)nc5c4)=NO3)[nH]c12 (stereo not drawn) [Example 195]	Ki	≤ 10 nM
O=C(O)CCCCc1nc2cc(-c3cc(COCc4cccc5cccnc45)on3)ccc2c(=O)n1-c1ccc(F)cc1 [Example 283]	Ki	10 to 50 nM
C[C@@]1(c2nc3ccc(F)cc3[nH]2)CC(c2ccc3c(=O)n(-c4ccc(F)cc4)c(CCCCC(=O)O)nc3c2)=NO1 [Example 182]	Ki	≤ 10 nM

----------
# experimental system: CRTH2 receptor (hCRTH2) (Homo sapiens, UniProt Q9Y5Y4)
# Construct: expressed in transfected cells; host or cells: HEK cells (HEK-hCRTH2 cell line), membranes
# assay name: Radioligand binding assay ([3H]PGD2 competition, membranes of HEK-hCRTH2 cell line)
# measurement parameters: 3.0 nM [3H]PGD2, HEK-hCRTH2 membranes, 60 min, room temperature; read-out: Ki
Listing: Ki of selected molecules

molecule	Ki
O=C(O)CCCCc1nc2cc(C3=NOC(c4nc5ccccc5o4)C3)ccc2c(=O)n1-c1ccc(F)cc1 (stereo not drawn) [Example 28]	≤ 10 nM
O=C(O)CCCCc1nc2cc(-c3cc(C(F)(F)F)on3)ccc2c(=O)n1-c1ccc(F)cc1 [Example 5M]	≤ 10 nM
C[C@]1([C@@H](O)c2ccccc2)CC(c2ccc3c(=O)n(-c4ccc(F)cc4)c(CCCCC(=O)O)nc3c2)=NO1 [Example 26D]	10 to 50 nM
C[C@H]1ON=C(c2ccc3c(=O)n(-c4ccc(F)cc4)c(CCCCC(=O)O)nc3c2)[C@H]1c1ccccc1 [Example 287]	≤ 10 nM
O=C(O)CCCCc1nc2cc(C3=NOC4(CC[C@H](c5ccccc5)C4)C3)ccc2c(=O)n1-c1ccc(F)cc1 (single isomer, unassigned) [Example 139]	≤ 10 nM
O=C(O)CCCCc1nc2cc(C3=NOC4(CCc5ccccc54)C3)ccc2c(=O)n1-c1ccc(F)cc1 (stereo not drawn) [Example 143]	10 to 50 nM
CC(c1ccccc1)C1(C)CC(c2ccc3c(=O)n(-c4ccc(F)cc4)c(CCCCC(=O)O)nc3c2)=NO1 (single isomer, unassigned) [Example 42E]	≤ 10 nM
CCC1(c2ccccc2)CC(c2ccc3c(=O)n(-c4ccc(F)cc4)c(CCCCC(=O)O)nc3c2)=NO1 (stereo not drawn) [Example 41]	≤ 10 nM
C[C@]1(c2nc3ccc(F)cc3[nH]2)CC(c2ccc3c(=O)n(-c4ccc(F)cc4)c(CCCCC(=O)O)nc3c2)=NO1 [Example 183]	10 to 50 nM
C[C@@]1(C(=O)NCc2ccc(C#N)cc2)CC(c2ccc3c(=O)n(-c4ccc(F)cc4)c(CCCCC(=O)O)nc3c2)=NO1 [Example 237]	10 to 50 nM
CC1(c2cccnc2)CC(c2ccc3c(=O)n(-c4ccc(F)cc4)c(CCCCC(=O)O)nc3c2)=NO1 (stereo not drawn) [Example 253]	≤ 10 nM
O=C(O)CCCCc1nc2cc(-c3cc(COCc4ccc(F)cc4)on3)ccc2c(=O)n1-c1ccc(F)cc1 [Example 278]	10 to 50 nM
O=C(O)CCCCc1nc2cc(-c3cc(Cc4ccc5ccccc5c4)on3)ccc2c(=O)n1-c1ccc(F)cc1 [Example 25J]	≤ 10 nM
CC1(c2nc3cc(F)cc(F)c3[nH]2)CC(c2ccc3c(=O)n(-c4ccc(F)cc4)c(CCCCC(=O)O)nc3c2)=NO1 (stereo not drawn) [Example 198]	≤ 10 nM
CC(c1ccc(F)cc1)c1cc(-c2ccc3c(=O)n(-c4ccc(F)cc4)c(CCCCC(=O)O)nc3c2)no1 (stereo not drawn) [Example 260]	≤ 10 nM
COc1cccc(C2CC(c3ccc4c(=O)n(-c5ccc(Cl)cc5)c(CCCCC(=O)O)nc4c3)=NO2)c1 (stereo not drawn) [Example 15o]	≤ 10 nM
O=C(O)CCCCc1nc2cc(-c3cc(COCc4ccnc5ccccc45)on3)ccc2c(=O)n1-c1ccc(F)cc1 [Example 284]	10 to 50 nM
O=C(O)CCCCc1nc2cc(-c3cc(CNS(=O)(=O)c4ccc(Cl)cc4)on3)ccc2c(=O)n1-c1ccc(F)cc1 [Example 24o]	≤ 10 nM

----------
# experimental system: CRTH2 receptor (hCRTH2) (Homo sapiens)
# Construct: expressed in transfected cells; host or cells: HEK cells (HEK-hCRTH2 cell line), membranes
# assay name: Radioligand binding assay ([3H]PGD2 competition, membranes of HEK-hCRTH2 cell line)
# measurement parameters: 3.0 nM [3H]PGD2, HEK-hCRTH2 membranes, 60 min, room temperature; read-out: Ki

compound	Ki
C=C(c1ccc(F)cc1)c1cc(-c2ccc3c(=O)n(-c4ccc(F)cc4)c(CCCCC(=O)O)nc3c2)no1 [Example 250]	≤ 0.01 µM
CC1(C(=O)O)CC(c2ccc3c(=O)n(-c4ccc(F)cc4)c(CCCCC(=O)O)nc3c2)=NO1 (centres unmarked) [Example 200]	0.01 to 0.05 µM
CC1(c2cnc3ccccc3n2)CC(c2ccc3c(=O)n(-c4ccc(F)cc4)c(CCCCC(=O)O)nc3c2)=NO1 (centres unmarked) [Example 230]	0.01 to 0.05 µM
CC[C@H](c1ccc(F)cc1)c1cc(-c2ccc3c(=O)n(-c4ccc(F)cc4)c(CCCCC(=O)O)nc3c2)no1 [Example 43]	≤ 0.01 µM
CC1(c2ccccc2)CC(c2ccc3c(=O)n(-c4ccc(Cl)cc4)c(CCCCC(=O)O)nc3c2)=NO1 (centres unmarked) [Example 15i]	≤ 0.01 µM

----------
Ki values by entry
# experimental system: CRTH2 receptor (hCRTH2) (Homo sapiens)
# Construct: expressed in transfected cells; host or cells: HEK cells (HEK-hCRTH2 cell line), membranes
# assay name: Radioligand binding assay ([3H]PGD2 competition, membranes of HEK-hCRTH2 cell line)
# measurement parameters: 3.0 nM [3H]PGD2, HEK-hCRTH2 membranes, 60 min, room temperature; read-out: Ki

compound	Ki
O=C(O)CCCCc1nc2cc(-c3cc(COCc4ccc(F)c(F)c4)on3)ccc2c(=O)n1-c1ccc(F)cc1 [Example 270]	≤ 10 nM
CCC(c1ccc(F)cc1)c1cc(-c2ccc3c(=O)n(-c4ccc(F)cc4)c(CCCCC(=O)O)nc3c2)no1 (centres unmarked) [Example 261]	≤ 10 nM
O=C(O)CCCCc1nc2cc(C3=NOC4(CCc5c(F)cccc54)C3)ccc2c(=O)n1-c1ccc(F)cc1 (centres unmarked) [Example 144]	10 to 50 nM
CC(c1ccccc1)C1(C)CC(c2ccc3c(=O)n(-c4ccc(F)cc4)c(CCCCC(=O)O)nc3c2)=NO1 (single isomer, unassigned) [Example 42F]	≤ 10 nM
COc1ccccc1S(=O)(=O)NCc1cc(-c2ccc3c(=O)n(-c4ccc(F)cc4)c(CCCCC(=O)O)nc3c2)no1 [Example 24]	≤ 10 nM
O=C(O)CCCCc1nc2cc(-c3cc(CSc4ccccn4)on3)ccc2c(=O)n1-c1ccc(F)cc1 [Example 39G]	10 to 50 nM
O=C(O)CCCCc1nc2cc(-c3nc(Cc4ccc(F)cc4)no3)ccc2c(=O)n1-c1ccc(F)cc1 [Example 22C]	10 to 50 nM
C[C@@]1([C@H](O)c2ccc(F)cc2)CC(c2ccc3c(=O)n(-c4ccc(F)cc4)c(CCCCC(=O)O)nc3c2)=NO1 [Example 289]	≤ 10 nM
C[C@@H]1C(c2ccc3c(=O)n(-c4ccc(F)cc4)c(CCCCC(=O)O)nc3c2)=NO[C@@H]1c1ccccc1 [Example 285]	≤ 10 nM
O=C(O)CCCCc1nc2cc(-c3cc(CNS(=O)(=O)c4ccc(F)cc4)on3)ccc2c(=O)n1-c1ccc(F)cc1 [Example 24H]	≤ 10 nM
O=C(O)CCCCc1nc2cc(-c3noc(C4CCCc5ccccc54)n3)ccc2c(=O)n1-c1ccc(F)cc1 (centres unmarked) [Example 244]	≤ 10 nM

----------
# experimental system: CRTH2 receptor (hCRTH2) (Homo sapiens, UniProt Q9Y5Y4)
# Construct: expressed in transfected cells; host or cells: HEK cells (HEK-hCRTH2 cell line), membranes
# assay name: Radioligand binding assay ([3H]PGD2 competition, membranes of HEK-hCRTH2 cell line)
# measurement parameters: 3.0 nM [3H]PGD2, HEK-hCRTH2 membranes, 60 min, room temperature; read-out: Ki
pKi: −log10 of the molar value.
Listing: pKi of selected compounds
parameter measured: pKi

compound	meas value
CC(CCCc1nc2cc(C3=NOC(C)([C@@H](O)c4ccccc4)C3)ccc2c(=O)n1-c1ccc(F)cc1)C(=O)O (stereo partly drawn) [Example 110]	7.30 to 8.00
CO[C@@H](c1ccccc1)c1cc(-c2ccc3c(=O)n(-c4ccc(F)cc4)c(C(C)CCCC(=O)O)nc3c2)no1 (stereo partly drawn) [Example 146]	7.30 to 8.00
CC1(C(=O)Nc2ccc(F)cc2O)CC(c2ccc3c(=O)n(-c4ccc(F)cc4)c(CCCCC(=O)O)nc3c2)=NO1 (stereo not drawn) [Example 229]	≥ 8.00
O=C(O)CCCCc1nc2cc(-c3cn(-c4ccc(F)cc4)nn3)ccc2c(=O)n1-c1ccc(F)cc1 [Example 105]	≥ 8.00
O=C(O)CCCCc1nc2cc(-c3cc(Cn4ccccc4=O)on3)ccc2c(=O)n1-c1ccc(F)cc1 [Example 107]	≥ 8.00
O=C(O)CCCCc1nc2cc(-c3cn(Cc4ccccc4)nn3)ccc2c(=O)n1-c1ccc(F)cc1 [Example 17]	≥ 8.00
CC1(c2nc3cc(Cl)c(F)cc3[nH]2)CC(c2ccc3c(=O)n(-c4ccc(F)cc4)c(CCCCC(=O)O)nc3c2)=NO1 (stereo not drawn) [Example 197]	≥ 8.00
CC(C)(C)OC(=O)N1CCC2(CC1)CC(c1ccc3c(=O)n(-c4ccc(Cl)cc4)c(CCCCC(=O)O)nc3c1)=NO2 [Example 15T]	≥ 8.00
O=C(O)CCCCc1nc2cc(C3=NO[C@@H](c4nc5ccc(Cl)cc5o4)C3)ccc2c(=O)n1-c1ccc(F)cc1 [Example 153]	≥ 8.00
C[C@]1(c2nc3ccccc3[nH]2)CC(c2ccc3c(=O)n(-c4ccc(F)cc4)c(CCCCC(=O)O)nc3c2)=NO1 [Example 176]	≥ 8.00
O=C(O)CCCCc1nc2cc(-n3cc(Cc4ccccc4)nn3)ccc2c(=O)n1-c1ccc(F)cc1 [Example 21E]	≥ 8.00
O=C(O)CCCCc1nc2cc(-c3cc(C(O)c4ccc5ccccc5c4)on3)ccc2c(=O)n1-c1ccc(F)cc1 (stereo not drawn) [Example 25i]	≥ 8.00
